Where these numbers come from: ChEMBL document CHEMBL1130312

# test_target: Retinoic acid receptor beta (Homo sapiens)
# Sequence (P10826 whole entry): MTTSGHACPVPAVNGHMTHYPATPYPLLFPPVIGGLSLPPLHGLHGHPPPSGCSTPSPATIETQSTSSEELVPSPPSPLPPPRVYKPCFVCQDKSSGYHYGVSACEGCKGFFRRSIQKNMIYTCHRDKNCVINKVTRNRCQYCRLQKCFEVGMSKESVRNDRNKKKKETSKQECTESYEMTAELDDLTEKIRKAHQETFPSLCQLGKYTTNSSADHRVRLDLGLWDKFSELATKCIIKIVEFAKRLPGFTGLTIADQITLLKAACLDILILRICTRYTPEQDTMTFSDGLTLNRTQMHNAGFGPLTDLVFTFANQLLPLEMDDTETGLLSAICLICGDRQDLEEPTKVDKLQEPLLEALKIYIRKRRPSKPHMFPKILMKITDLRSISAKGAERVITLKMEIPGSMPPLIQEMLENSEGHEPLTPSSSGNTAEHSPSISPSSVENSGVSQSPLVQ
# protocol_summary: Binding affinity towards cRAR-beta-2 receptor by displacing 1.1 nM 3[H]-9-cis-RA
experimental_readout: pKi
Give bare numbers, as −log10 of the molar value.

Name the recorded pKi of the molecule listed here: CC(/C=C/C1CC1/C=C/C1=CC(C)(C)CCC1(C)C)=C\C(=O)O (configuration not stated) 7.89
